# tested target: REFACTO® (recombinant factor VIII-like polypeptide consisting of amino acids 1-743 and 1638 through 2332 of human factor VIII) (human) (UniProt P00451)
# Sequence (P00451 20-762, chain 1 of 2): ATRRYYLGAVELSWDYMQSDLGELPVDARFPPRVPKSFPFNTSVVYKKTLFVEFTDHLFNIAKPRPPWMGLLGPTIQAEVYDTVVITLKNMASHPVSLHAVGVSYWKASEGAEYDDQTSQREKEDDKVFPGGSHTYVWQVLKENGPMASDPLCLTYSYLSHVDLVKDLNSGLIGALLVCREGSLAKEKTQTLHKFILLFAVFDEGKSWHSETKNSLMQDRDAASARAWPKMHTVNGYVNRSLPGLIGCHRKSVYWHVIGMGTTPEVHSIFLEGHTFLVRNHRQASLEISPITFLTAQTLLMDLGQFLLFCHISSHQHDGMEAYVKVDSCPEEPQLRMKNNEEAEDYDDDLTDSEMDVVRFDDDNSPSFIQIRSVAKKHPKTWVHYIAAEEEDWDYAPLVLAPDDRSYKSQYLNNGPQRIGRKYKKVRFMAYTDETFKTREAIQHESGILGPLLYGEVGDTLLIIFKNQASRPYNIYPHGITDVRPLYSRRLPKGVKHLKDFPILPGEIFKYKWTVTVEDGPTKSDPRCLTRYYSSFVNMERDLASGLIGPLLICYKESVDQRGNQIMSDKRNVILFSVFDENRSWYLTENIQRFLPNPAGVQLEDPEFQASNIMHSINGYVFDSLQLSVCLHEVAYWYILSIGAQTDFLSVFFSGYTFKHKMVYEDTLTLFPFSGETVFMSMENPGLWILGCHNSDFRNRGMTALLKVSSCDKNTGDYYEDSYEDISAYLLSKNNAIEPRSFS
# Sequence (P00451 1657-2351, chain 2 of 2): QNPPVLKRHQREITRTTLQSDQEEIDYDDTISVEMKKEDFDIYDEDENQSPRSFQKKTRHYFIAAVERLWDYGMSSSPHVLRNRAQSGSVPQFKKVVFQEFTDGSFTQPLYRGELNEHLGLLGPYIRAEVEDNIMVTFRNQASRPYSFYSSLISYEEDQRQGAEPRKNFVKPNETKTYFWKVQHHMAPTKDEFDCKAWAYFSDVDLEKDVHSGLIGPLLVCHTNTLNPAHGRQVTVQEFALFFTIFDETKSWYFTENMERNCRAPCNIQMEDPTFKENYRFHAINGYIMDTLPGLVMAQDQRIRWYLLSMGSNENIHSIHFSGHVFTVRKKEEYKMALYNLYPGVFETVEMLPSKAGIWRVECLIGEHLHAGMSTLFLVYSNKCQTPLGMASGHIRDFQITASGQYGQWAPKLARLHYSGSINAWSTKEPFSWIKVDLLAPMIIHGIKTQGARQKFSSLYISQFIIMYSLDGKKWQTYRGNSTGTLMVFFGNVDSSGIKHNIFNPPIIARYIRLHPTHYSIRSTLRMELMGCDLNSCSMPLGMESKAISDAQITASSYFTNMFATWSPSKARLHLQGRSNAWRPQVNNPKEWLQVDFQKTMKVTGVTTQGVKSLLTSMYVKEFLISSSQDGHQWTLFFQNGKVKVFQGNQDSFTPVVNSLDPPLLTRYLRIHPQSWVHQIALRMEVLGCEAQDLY
# protocol: affinity column, peptide on Toyopearl Formyl 650-M; target in fraction by activity assay
Positions of bridges follow the written chain, without caps; N, C: chain ends. No end group written: not given here. *: point of attachment. NHNH2 = NN*
experimental readout: % recovery, Elution A (%)

Query string: Please give measured % recovery, Elution A of the following entry: AEGTGDFCWVFAFDHCHDPGPEGGGS-NHNH2 (disulfide 8-16 (inferred)) [Affinity ligand CS-458]
Result string: 55.6

P. AEGTGDHLCGAWFRPCDADPGPEGGGS-NHNH2 (disulfide 9-16 (inferred)) [Affinity ligand CS-454]
Q. AEGTGDHPCGSWLRPCLHDPGPEGGGS-NHNH2 (disulfide 9-16 (inferred)) [Affinity ligand CS-453]
Query string: Lower % recovery, Elution A: P or Q ? Write the label of whichever entry you select.
Result string: Q
(Q: 26.4%, P: 42.4%)
